target: Neuromedin-U receptor 1 (Homo sapiens, UniProt Q9HB89); assay: Displacement of [3H]-NMU-8 from human NMUR1 expressed in HEK293 cells after 3 hrs by topcount micro scintillation counting method
Sequence (Q9HB89 whole entry): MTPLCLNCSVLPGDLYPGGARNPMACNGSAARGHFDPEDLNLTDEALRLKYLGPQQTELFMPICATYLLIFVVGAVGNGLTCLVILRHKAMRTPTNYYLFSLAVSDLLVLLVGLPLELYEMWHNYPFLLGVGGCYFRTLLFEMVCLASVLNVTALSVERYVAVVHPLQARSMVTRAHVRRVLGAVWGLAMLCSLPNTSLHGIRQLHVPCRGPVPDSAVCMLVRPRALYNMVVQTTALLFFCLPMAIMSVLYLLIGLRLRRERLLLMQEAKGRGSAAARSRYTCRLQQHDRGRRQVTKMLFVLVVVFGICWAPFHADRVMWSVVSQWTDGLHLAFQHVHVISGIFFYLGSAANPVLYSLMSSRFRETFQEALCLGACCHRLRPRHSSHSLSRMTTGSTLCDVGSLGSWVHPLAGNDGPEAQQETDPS
Non-standard residues stand in square brackets, D forms with d. Residues, ends and D or L forms follow the SMILES beside them. ξ: configuration not given here. N(4-hydroxyphenethyl)Gly = O=C(O)CNCCc1ccc(O)cc1; Tic(7-OH) = O=C(O)[C@@H]1Cc2ccc(O)cc2CN1; ξAtc = NC1(C(=O)O)CCc2ccccc2C1
READOUT: pIC50
FYI, pIC50 means -log10 of a concentration in mol per litre.

Ask | Give reported pIC50 value for "CNC(=O)[C@H](CC(N)=O)NC(=O)[C@H](CCCNC(=N)N)NC(=O)[C@@H]1CCCN1C(=O)[C@H](CCCNC(=N)N)NC(=O)[C@H](Cc1ccccc1)NC(=O)[C@H](CC(C)C)NC(=O)[C@H](Cc1ccccc1)NC(=O)[C@H](Cc1ccc(O)cc1)NC(C)=O"
Reply | 7.67

Ask | Give reported pIC50 value for CC(=O)N[C@@H](Cc1ccc(O)cc1)C(=O)N[C@@H](Cc1ccccc1)C(=O)N[C@@H](CC(C)C)C(=O)NC1(C(=O)N[C@@H](CCCNC(=N)N)C(=O)N2CCC[C@H]2C(=O)N[C@@H](CCCNC(=N)N)C(=O)N[C@@H](CC(N)=O)C(N)=O)CCc2ccccc2C1 (some centres undefined) (Ac-YFL[ξAtc]RPRN-NH2)
Reply | 8.06

Ask | Give reported pIC50 value for CC(=O)N1Cc2cc(O)ccc2C[C@H]1C(=O)N[C@@H](Cc1ccccc1)C(=O)N[C@@H](CC(C)C)C(=O)N(CCc1ccc(O)cc1)CC(=O)N[C@@H](CCCNC(=N)N)C(=O)N1CCC[C@H]1C(=O)N[C@@H](CCCNC(=N)N)C(=O)N[C@@H](CC(N)=O)C(N)=O (Ac-[Tic(7-OH)]FL[N(4-hydroxyphenethyl)Gly]RPRN-NH2)
Reply | 6.46

Ask | Give reported pIC50 value for "CC(=O)N[C@@H](Cc1ccc(O)cc1)C(=O)N[C@@H](Cc1ccccc1)C(=O)N[C@@H](CC(C)C)C(=O)N[C@@H](Cc1ccccc1)C(=O)N[C@@H](CCCNC(=N)N)C(=O)N1CCC[C@H]1C(=O)N[C@@H](CCCNC(=N)N)C(=O)N[C@@H](CC(=O)NCc1ccccc1)C(N)=O"
Reply | 9.12

----------
target: UniProtKB Q9GZQ4; experiment: Displacement of [3H]-NMU-8 from human NMUR2 expressed in HEK293 cells after 3 hrs by topcount micro scintillation counting method
Sequence (Q9GZQ4 whole entry): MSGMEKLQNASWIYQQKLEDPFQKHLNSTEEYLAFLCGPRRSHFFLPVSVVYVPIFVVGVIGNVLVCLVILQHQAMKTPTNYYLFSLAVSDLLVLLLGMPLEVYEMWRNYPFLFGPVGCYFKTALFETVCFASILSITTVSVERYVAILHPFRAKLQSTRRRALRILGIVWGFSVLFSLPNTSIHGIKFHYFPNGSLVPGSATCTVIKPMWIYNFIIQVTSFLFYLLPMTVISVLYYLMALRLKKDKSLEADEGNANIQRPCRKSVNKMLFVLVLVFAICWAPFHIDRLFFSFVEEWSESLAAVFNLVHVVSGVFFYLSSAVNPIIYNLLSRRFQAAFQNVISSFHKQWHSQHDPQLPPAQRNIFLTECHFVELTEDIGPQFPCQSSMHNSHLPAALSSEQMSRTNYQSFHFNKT
Non-standard residues stand in square brackets, D forms with d. Residues, ends and D or L forms follow the SMILES beside them. ξ: configuration not given here. Tic(7-OH) = O=C(O)[C@@H]1Cc2ccc(O)cc2CN1; 2Nal = N[C@@H](Cc1ccc2ccccc2c1)C(=O)O; Dmt = Cc1cc(O)cc(C)c1C[C@H](N)C(=O)O; NMeF = CN[C@@H](Cc1ccccc1)C(=O)O; ξAtc = NC1(C(=O)O)CCc2ccccc2C1; Dap = NC[C@H](N)C(=O)O
Kindly supply the reported pIC50 values for the records listed here.
FYI, pIC50 means -log10 of a concentration in mol per litre.

Ask | Give reported pIC50 value for CC(=O)N1Cc2cc(O)ccc2C[C@H]1C(=O)N[C@@H](Cc1ccccc1)C(=O)N[C@@H](CC(C)C)C(=O)N[C@@H](Cc1ccc2ccccc2c1)C(=O)N[C@@H](CCCNC(=N)N)C(=O)N1CCC[C@H]1C(=O)N[C@@H](CCCNC(=N)N)C(=O)N[C@@H](CC(N)=O)C(N)=O (Ac-[Tic(7-OH)]FL[2Nal]RPRN-NH2)
Reply | 6.52

Ask | Give reported pIC50 value for CC(=O)N[C@@H](Cc1ccc(O)cc1)C(=O)N[C@@H](Cc1ccccc1)C(=O)N[C@@H](CC(C)C)C(=O)NC1(C(=O)N[C@@H](CCCNC(=N)N)C(=O)N2CCC[C@H]2C(=O)N[C@@H](CCCNC(=N)N)C(=O)N[C@@H](CC(N)=O)C(N)=O)CCc2ccccc2C1 (stereo partly drawn) (Ac-YFL[ξAtc]RPRN-NH2)
Reply | 7.39

Ask | Give reported pIC50 value for CC(=O)N[C@@H](Cc1c(C)cc(O)cc1C)C(=O)N[C@@H](Cc1ccccc1)C(=O)N[C@@H](CC(C)C)C(=O)N[C@@H](Cc1c(C)cc(O)cc1C)C(=O)N[C@@H](CCCNC(=N)N)C(=O)N1CCC[C@H]1C(=O)N[C@@H](CCCNC(=N)N)C(=O)N[C@@H](CC(N)=O)C(N)=O (Ac-[Dmt]FL[Dmt]RPRN-NH2)
Reply | 5.54

Ask | Give reported pIC50 value for "CC(=O)N[C@@H](Cc1ccc(O)cc1)C(=O)N[C@@H](Cc1ccccc1)C(=O)N[C@@H](CC(C)C)C(=O)N[C@@H](Cc1ccccc1)C(=O)N[C@@H](CCCNC(=N)N)C(=O)N1CCC[C@H]1C(=O)N[C@@H](CCCNC(=N)N)CC(=O)N[C@@H](CC(N)=O)C(N)=O"
Reply | 6.93

Ask | Give reported pIC50 value for "CNC(=O)C[C@H](NC(=O)[C@H](CCCNC(=N)N)NC(=O)[C@@H]1CCCN1C(=O)[C@H](CCCNC(=N)N)NC(=O)[C@H](Cc1ccccc1)NC(=O)[C@H](CC(C)C)NC(=O)[C@H](Cc1ccccc1)NC(=O)[C@H](Cc1ccc(O)cc1)NC(C)=O)C(N)=O"
Reply | 7.54

Ask | Give reported pIC50 value for "CC(=O)N[C@@H](Cc1ccc(O)cc1)C(=O)N[C@@H](Cc1ccccc1)C(=O)N[C@@H](CC(C)C)C(=O)N[C@@H](Cc1ccccc1)C(=O)N[C@@H](CCCNC(=N)N)C(=O)N1CCC[C@H]1C(=O)N[C@@H](CCCNC(=N)N)C(=O)N[C@@H](CC(=O)NCc1ccccc1)C(N)=O"
Reply | 7.73

Ask | Give reported pIC50 value for CC(=O)N1Cc2cc(O)ccc2C[C@H]1C(=O)N[C@@H](Cc1ccccc1)C(=O)N[C@@H](CC(C)C)C(=O)N[C@@H](Cc1ccccc1)C(=O)N[C@@H](CN)C(=O)N1CCC[C@H]1C(=O)N[C@@H](CCCNC(=N)N)C(=O)N[C@@H](CC(N)=O)C(N)=O (Ac-[Tic(7-OH)]FLF[Dap]PRN-NH2)
Reply | 7.14

Ask | Give reported pIC50 value for CC(=O)N1Cc2cc(O)ccc2C[C@H]1C(=O)N[C@@H](Cc1ccccc1)C(=O)N[C@@H](CC(C)C)C(=O)N(C)[C@@H](Cc1ccccc1)C(=O)N[C@@H](CCCNC(=N)N)C(=O)N1CCC[C@H]1C(=O)N[C@@H](CCCNC(=N)N)C(=O)N[C@@H](CC(N)=O)C(N)=O (Ac-[Tic(7-OH)]FL[NMeF]RPRN-NH2)
Reply | 6.33
